biological target: T1, human serum albumin (human, UniProt P02768 25-609); assay: SPR (Biacore), HSA amine-coupled on CM5, pH 5
T1 construct: also called HSA
# if value of koff reaches 0.008 s⁻¹, tag rule met; if it stays below, tag rule not met

>>> category_label("4C5 (VHH, Tested as periplasmic extract) VHH: EVQLVESGGGLVQAGDSLRLSCAASGRPFSAYVMGWFRRAPGKEREFVGGINWNSANTWYTDSVLGRFTISKDNAKNTVYLQMNSLKPEDTAVYYCAAAGGVGYYRYERQYDYWGQGTQVTVSS")
"rule not met"
>>> category_label("4B1 (VHH, Tested as periplasmic extract) VHH: EVQLVESGGGLVQPGGSLRLSCVAAGFTLDYYAIGWFRQAPGKEREGVSCITSDGRTYYADSVKGRFTISRDMAKKMVYLQMNSLKPEDTAVYYCAAGACMGGSGYEADFGSWGQGTQVTVSS")
"rule not met"
>>> category_label("4D5 (VHH, Tested as periplasmic extract) VHH: EVQLVESGGGLVQAGGSLRLSCAASGLSFSKYAMGWFRQAPGKQREYVAVISSSDTTYYTNSAKGRFTISRDNAENTVYLQMNSLKPEDTAVYFCAADSYVTALQTLTQISYWGQGTQVTVSS")
"rule met"
>>> category_label("4B8 (VHH, Tested as periplasmic extract) VHH: EVQLVESGGGLVQAGGSLRLSCAASGGTYSGNAMAWFRQAPGKEREFVAGIDWSSENTRYIDSVKGRFTISRDNAKNTMYLQMNSLKPEDTAVYYCAAGTSWGALASRLEAAYSSWGQGTQVTVSS")
"rule not met"
>>> category_label("4A6 (VHH, Tested as periplasmic extract) VHH: EVQLVESGGGLVQPGGSLRLSCAASPFTLDYYAIGWFRQAPGKEREGVSCSTSHGKTYHADSVKGRFTISRDNAKNTVYLQMNSLKPEDTAVYYCAAGACMGGSGYEADFGSWGQGTQVTVSS")
"rule met"
>>> category_label("4A9 (VHH, Tested as periplasmic extract) VHH: EVQLVESGGGLVQAGGSLRLSCEASGFTLDYSGVGWFRQAPGKERELVSCISRGGDRAGYANSVKGRFTMSRDNAKNILYLQMNSLKPEDTAVYYCAATHSGSGCYDGAIDYWGKGTLVTVSS")
"rule not met"
>>> category_label("4C11 (albumin binder) (VHH, Tested as periplasmic extract) VHH: EVQLVESGGGLVQAGGSLRLSCAASGLSFSRYAMGWFRQAPGKQREYVAVISSSDTTYYTNSAKGRFTISRDNAENTVYLQMNSLKPEDTAVYFCAADSFVTALQTLTQINYWGQGTQVTVSS")
"rule met"
>>> category_label("4B5 (VHH, Tested as periplasmic extract) VHH: EVQLVESGGGLVQAGDSLRLSCAASGRTYSRNAMAWFRQAPGKEREFVAGIDWSSENTRYIDSVKGRFTISRDNAKSTMYLQMNSLKPEDTAVYYCAAGTSWGALASRLEAAYSSWGQGTQVTVSS")
"rule not met"
>>> category_label("4D7 (VHH, Tested as periplasmic extract) VHH: EVQLVESGGGLVQAGDSLRLSCAASGRPFSSYVMGWFRRAPGKEREFVGGINWNSGNTWYSDSVLGRFTISRDNAKNTVDLQMNSLKPEDTAVYYCATASGVGYYRYERQYDYWGQGTQVTVSS")
"rule not met"
>>> category_label("4B6 (VHH, Tested as periplasmic extract) VHH: KVQLVESGGGLVQVGGSLRLSCVASGRTYGGNAMAWFRQAPGKEREFVAGIDWSSENTRYTDSVKGRFTISRDNAKNTMYLQMNSLKPEDTAVYYCAAGTSWGALASRLENAYSAWGQGTQVTVSS")
"rule not met"
>>> category_label("4C8 (VHH, Tested as periplasmic extract) VHH: EVQLVESGGGLVQAGDSLRLSCAASGRTYTPYVMGWFRRAPGKEREFVGAVSWSGTNTWYTDSVKGRFTISRDNAKNTVYLQMNSLKPEDTAVYYCAAGDGVGIYRYEHQYDYWGQGTQVTVSS")
"rule not met"
>>> category_label("4C3 (VHH, Tested as periplasmic extract) VHH: EVQLVESGGGLVQAGGSLRLSCAASGRTFSSYAMAWFRQAPGEEREFVATISVSGGYTYYADSVKGRFTISRDNAKNTVYLQMNTLKPEDTAVYYCAAGDSSSWLEHMYDYWGQGTQVTVSS")
"rule not met"
>>> category_label("4C4 (VHH, Tested as periplasmic extract) VHH: EVQLVESGGGLVQAGDSLRLSCAASGRPFMSYVMGWFRRAPGKEREFVGGINWGSGNTWYTDSVLGRFTISRDNAKNTVYLQMNSLKPEDTAVYYCATAAGVGYYRYERQYDYWGQGTQVTVSS")
"rule not met"
>>> category_label("4D3 (VHH, Tested as periplasmic extract) VHH: EVQLVKSGGGLVQPGGSLRLSCAASGFTFSHYQMSWVRQAPGKDVEWVSSISMLGGGTTYADSVKGRFTISRDNAKSTLVLQMNNLKVEDTAVYYCARGFSGNYYRADLGQGTQVTVSS")
"rule met"
>>> category_label("4B10 (VHH, Tested as periplasmic extract) VHH: EVQLVESGGGLVQAGDSLRLSCAASGRTFSSYAMGWFRQAPGTERQFVARITGKGDSTDYADSVRGRFTISRDNAKNTVYLQMNSLKPEDTAVYYCAADAFNSLLQAGRAEYWGQGTQVTVSS")
"rule met"
